- Assay details: Pulmonary kinetics by intratracheal route, multiple dose (7 days)
- Format: in vivo, Wistar rats
- Measurement parameters: both sexes, Wistar, rat, plasma, inhaled or intranasal, 1 mg/kg, 1 mg/kg IT for 7 days, plasma, Day-7; read-out: Tmax, Plasma, Day-7, N-Oxide
Measured endpoint: Tmax
I'd appreciate it if you included the unit after the number.

(Q) # input compound: O=C(Nc1c(Cl)c[n+]([O-])cc1Cl)c1ccc(OC(F)F)c(OCC2CC2)c1 [Roflumilast N-oxide] ; wanted: its Tmax
(A) 1 h

---

- Assay details: Pulmonary kinetics by intratracheal route, multiple dose (7 days)
- Type: in vivo, Wistar rats
- Measurement parameters: both sexes, Wistar, rat, plasma, inhaled or intranasal, 1 mg/kg, 1 mg/kg IT for 7 days, plasma, Day-7; read-out: t1/2, Plasma, Day-7, N-Oxide (converted)
Measured endpoint: half-life (h)
One number for each entry, in h.

(Q) # input compound: O=C(Nc1c(Cl)c[n+]([O-])cc1Cl)c1ccc(OC(F)F)c(OCC2CC2)c1 [Roflumilast N-oxide] ; wanted: its half-life
(A) 1.53
